- Tested on: MOLM-13 (Acute Myeloid Leukemia)
- experimental_details: combination Emax (second highest fraction inhibited in the dose matrix, 72 h); higher = more inhibition; extreme values may be limits of the assay
Provide the reported combination Emax of each item.
API note: the answer field is a bare number with no unit suffix.

# input Hello, I am looking for reported combination Emax with MOLM-13 (Acute Myeloid Leukemia) for CN(CCO)CC[C@H](CSc1ccccc1)Nc1ccc(S(=O)(=O)NC(=O)c2ccc(N3CCC([C@@H](O)c4ccccc4-c4ccc(Cl)cc4)CC3)cc2)cc1S(=O)(=O)C(F)(F)F [AZD4320] + CN(C)CCCOc1ccc(-c2ccc3ncc4c(c3c2)n(C2CCOCC2)c(=O)n4C)cn1 [AZD0156] (first compound max 1 µM, 7x7, partner max 1 µM) . Could you help?
# output 1

# input Hello, I am looking for reported combination Emax with MOLM-13 (Acute Myeloid Leukemia) for C[C@@H](c1ccc2nccn2c1)n1nnc2ncc(-c3cnn(C)c3)nc21 [Savolitinib] + Cc1c2c(nn1C)CSCc1cc(n(C)n1)CSc1cc(c3ccccc3c1)OCCCc1c(C(=O)O)n(C)c3c-2c(Cl)ccc13 [AZD5991] (first compound max 1 µM, 7x7, partner max 1 µM) . Could you help?
# output 1

# input Hello, I am looking for reported combination Emax with MOLM-13 (Acute Myeloid Leukemia) for Cc1c2c(nn1C)CSCc1cc(n(C)n1)CSc1cc(c3ccccc3c1)OCCCc1c(C(=O)O)n(C)c3c-2c(Cl)ccc13 [AZD5991] + CC1(C)CCC(CN2CCN(c3ccc(C(=O)NS(=O)(=O)c4ccc(NCC5CCOCC5)c([N+](=O)[O-])c4)c(Oc4cnc5[nH]ccc5c4)c3)CC2)=C(c2ccc(Cl)cc2)C1 [Venetoclax] (first compound max 1 µM, 7x7, partner max 1 µM) . Could you help?
# output 1

All figures here come from the supplement of paper PMC11061612.
